Assay Procedure: Selectivity ratio of Ki for JAK2 to Ki for LRRK2
Exercise: for every item that follows, state its recorded Ratio Ki.

For reference, reported Ratio Ki for CNc1nc(Nc2cc(OC)c(C(=O)N3CCOCC3)cc2Cl)ncc1C(F)(F)F stands at > 808

For reference, reported Ratio Ki for CNc1nc(Nc2ccc(C(=O)N3CCOCC3)cc2OC)ncc1C#N stands at > 288

For reference, reported Ratio Ki for CNc1nc(Nc2cc(OC)c(C(=O)N3CCOCC3)cc2OC)ncc1C(F)(F)F stands at > 2540

For reference, reported Ratio Ki for CNc1nc(Nc2ccc(C(=O)N3CCOCC3)cc2OC)ncc1Br stands at 1550

For reference, reported Ratio Ki for CNc1nc(Nc2ccc(C(=O)N3CCOCC3)c(F)c2OC)ncc1C(F)(F)F stands at > 262

For reference, reported Ratio Ki for CNc1nc(Nc2cc(Cl)c(C(=O)N3CCOCC3)cc2OC)ncc1C(F)(F)F stands at > 1370

For reference, reported Ratio Ki for CNc1nc(Nc2cc(F)c(C(=O)N3CCOCC3)cc2OC)ncc1C(F)(F)F stands at > 533

For reference, reported Ratio Ki for COc1cc(C(=O)N2CCOCC2)c(F)cc1Nc1ncc(C(F)(F)F)c(NC2CC2)n1 stands at > 3200

For reference, reported Ratio Ki for COc1cc(C(=O)N2CCOCC2)ccc1Nc1ncc(Br)c(OC)n1 stands at > 661

For reference, reported Ratio Ki for CNc1nc(Nc2cc(C)c(C(=O)N3CCOCC3)cc2OC)ncc1C(F)(F)F stands at > 1870

Source: ChEMBL document CHEMBL2176933
